The measurements presented in this section are drawn from patent US20250326777A1.

# assay_system: human MRGPRX4 (Homo sapiens)
# test: MRGPRX4 antagonist calcium (FLIPR, Fluo-8) assay in HEK293T cells stably expressing human MRGPRX4, agonist 0.2 μM deoxycholic acid-3-phosphoric acid
# test_settings: HEK293T cells stably expressing human MRGPRX4; antagonist mode; top conc. 30 μM, ten 3-fold serial dilutions; C may also mean <40% inhibition at 2 μM; read-out: Antagonist activity (IC50 class)
Reported IC50 values follow for various compounds
measurement_kind: IC50

| compound | value |
| --- | --- |
| CC(C)n1c(-c2ccc(C(=O)O)cc2)cc2ccc(C(F)(F)F)cc21 [Example 5] | 1 to 10 µM |
| O=C(O)c1ccc(-c2cc3ccc(C(F)(F)F)cc3n2C2CCC2)cc1 [Example 28] | 1 to 10 µM |
| Fc1cc(-c2nnn[nH]2)cc(C2Cc3cc(C(F)(F)F)ccc3O2)c1 (stereo not shown) [Compound 91] | < 1 µM |
| Cn1c(-c2ccc(F)c(C(=O)O)c2)cc2ccc(C(F)(F)F)cc21 [Example 2] | > 10 µM |
| O=c1[nH]c(-c2cccc([C@@H]3Cc4cc(C(F)(F)F)ccc4O3)c2F)no1 [Compound 105] | < 1 µM |
| CCCn1c(-c2ccc(C(=O)O)cc2)cc2ccc(F)cc21 [Example 20] | > 10 µM |
| O=C(O)c1cccc(C2Cc3cc(C(F)(F)F)ccc3O2)c1 (stereo not shown) [Example 60] | 1 to 10 µM |
| O=C(O)c1cccc(C2Cc3cc(F)c(F)cc3O2)c1F (stereo not shown) [Example 81] | > 10 µM |
| CCCn1c(-c2ccc(C(=O)O)cc2)cc2ccc(-c3ccccc3)cc21 [Example 23] | > 10 µM |
| CNC(=O)c1cccc(C2Cc3cc(C(F)(F)F)ccc3O2)c1F (stereo not shown) [Example 74] | > 10 µM |
| O=C(O)c1ccc(C2Cc3ccccc3O2)cc1 (stereo not shown) [Example 59] | > 10 µM |
| Cn1c(-c2ccc(C(=O)O)cc2)cc2ccc(C(F)(F)F)cc21 [Example 1] | 1 to 10 µM |
| Fc1c(-c2nnn[nH]2)cccc1[C@@H]1Cc2cc(C(F)(F)F)ccc2O1 [Compound 88] | < 1 µM |
| Cc1cc(C(=O)O)cc(C2Cc3cc(C(F)(F)F)ccc3O2)c1 (stereo not shown) [Example 67] | 1 to 10 µM |
| CC(C)n1c(-c2ccc(C(=O)O)cc2)cc2c(Cl)cc(C(F)(F)F)cc21 [Example 33] | > 10 µM |
| COc1ccc2cc(-c3ccc(C(=O)O)cc3)n(C)c2c1 [Example 10] | > 10 µM |
| COc1c(C(=O)O)cccc1C1Cc2cc(C(F)(F)F)ccc2O1 (stereo not shown) [Example 56] | > 10 µM |
| O=C(O)c1cccc(C2Cc3cc(F)cc(Cl)c3O2)c1F (stereo not shown) [Example 84] | > 10 µM |
| Cc1cc(-c2nnn[nH]2)cc(C2Cc3cc(C(F)(F)F)ccc3O2)c1 (stereo not shown) [Compound 94] | < 1 µM |

###

# assay_system: human MRGPRX4 (Homo sapiens, UniProt Q96LA9)
# Sequence (Q96LA9 whole entry): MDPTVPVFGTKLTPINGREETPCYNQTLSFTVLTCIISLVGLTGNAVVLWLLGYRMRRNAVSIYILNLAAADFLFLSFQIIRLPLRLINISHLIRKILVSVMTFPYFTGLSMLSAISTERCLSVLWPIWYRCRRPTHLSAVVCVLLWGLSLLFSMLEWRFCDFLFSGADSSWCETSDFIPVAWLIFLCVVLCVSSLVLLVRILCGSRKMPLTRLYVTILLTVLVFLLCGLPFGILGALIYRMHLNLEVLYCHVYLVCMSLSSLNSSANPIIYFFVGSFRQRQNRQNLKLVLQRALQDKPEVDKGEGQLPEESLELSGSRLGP
# test: MRGPRX4 antagonist calcium (FLIPR, Fluo-8) assay in HEK293T cells stably expressing human MRGPRX4, agonist 0.2 μM deoxycholic acid-3-phosphoric acid
# test_settings: HEK293T cells stably expressing human MRGPRX4; antagonist mode; top conc. 30 μM, ten 3-fold serial dilutions; C may also mean <40% inhibition at 2 μM; read-out: Antagonist activity (IC50 class)

| molecule | IC50 |
| --- | --- |
| O=C(O)c1ccc(-c2nc3cc(C(F)(F)F)cc(Cl)c3o2)cc1 | > 10 µM |
| Fc1c(-c2nnn[nH]2)cccc1C1Cc2c(ccc3ccccc23)O1 (centres unmarked) | < 1 µM |
| Cn1c(-c2ccc(C(=O)O)cc2)cc2cc(C(F)(F)F)ccc21 | 1 to 10 µM |
| Fc1c(-c2nnn[nH]2)cccc1[C@@H]1Cc2c(ccc3ccccc23)O1 | < 1 µM |
| O=C(O)c1ccc(-c2cc3ccc(C(F)(F)F)cc3n2-c2ccccc2)c(F)c1 | > 10 µM |
| Cn1c(-c2ccc(C(=O)O)cc2)cc2c(Cl)cc(C(F)(F)F)cc21 | 1 to 10 µM |
| O=C(O)c1ccc(C2Cc3cc(C(F)(F)F)ccc3O2)cc1F (centres unmarked) | > 10 µM |
| Cn1c(-c2ccc(P(=O)(O)O)cc2)cc2ccc(C(F)(F)F)cc21 | > 10 µM |
| O=C(O)c1cccc(-c2cc3ccc(C(F)(F)F)cc3n2C2CCCC2)c1F | > 10 µM |
| Cn1c(-c2cccc(C(=O)O)c2)cc2ccc(C(F)(F)F)cc21 | > 10 µM |
| O=C(O)c1cccc(C2Cc3cc(OC(F)(F)F)ccc3O2)c1F (centres unmarked) | 1 to 10 µM |
